tested on: P. falciparum W2; assay: Malaria SYBR Green Fluorescence Assay, W2 strain; assay type: cell-based, Plasmodium falciparum; details: SYBR Green Assay
W2 strictly less than 40 ng/mL = Satisfied. Otherwise Not satisfied.

compound	qualitative-label
CN1CCN(c2nc(-c3ccc([S+](C)[O-])cc3)nc(C(Cl)(Cl)Cl)n2)CC1 (stereo not drawn) [Compound 72]	Satisfied
CCN1CCCC(Nc2nc(-c3ccccc3OC)nc(C(Cl)(Cl)Cl)n2)C1 (stereo not drawn) [Cmpd 215]	Not satisfied
COc1cccc(-c2nc(NCCc3ccncc3)nc(C(Cl)(Cl)Cl)n2)c1 [Cmpd 151]	Not satisfied
COc1ccc(-c2nc(N3CCCNCC3)nc(C(Cl)(Cl)Cl)n2)c2ccccc12 [Cmpd 281]	Not satisfied
CC(C)(N)CNc1nc(-c2cc(Cl)cc(Cl)c2)nc(C(Cl)(Cl)Cl)n1 [Compound 195]	Satisfied
COc1ccc(-c2nc(NCCN3CCCC3)nc(C(Cl)(Cl)Cl)n2)c2ccccc12 [Cmpd 278]	Satisfied
CS(=O)(=O)c1ccc(-c2nc(NCCNCCO)nc(C(Cl)(Cl)Cl)n2)cc1 [Cmpd 98]	Not satisfied
COc1ccc(-c2nc(N3CCCNCC3)nc(C(Cl)(Cl)Cl)n2)cc1 [Cmpd 101]	Not satisfied
